measurement_target: MCR-1 (Homo sapiens)
Construct: expressed in transfected cells; host or cells: HEK 293
Sequence (Q01726 whole entry): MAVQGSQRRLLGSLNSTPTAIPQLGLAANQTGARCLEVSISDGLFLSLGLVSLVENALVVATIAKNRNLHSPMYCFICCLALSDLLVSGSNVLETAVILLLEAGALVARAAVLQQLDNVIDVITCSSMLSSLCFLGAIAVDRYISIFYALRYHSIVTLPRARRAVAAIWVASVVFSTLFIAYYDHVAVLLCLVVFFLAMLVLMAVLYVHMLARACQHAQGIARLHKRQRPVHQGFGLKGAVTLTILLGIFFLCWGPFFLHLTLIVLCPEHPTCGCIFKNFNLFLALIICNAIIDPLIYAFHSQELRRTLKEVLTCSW
protocol_text: Melanocortin receptor binding assay, competition with 125I-HP 467, HEK 293 cells expressing hMCR-1
test_conditions: TRG 2406 and TRG 2407 libraries; inhibition of binding of 125I-HP 467; read-out: MC-1 IC50
For each of the molecules below, state its pIC50.
// pIC50 is dimensionless: -log10 of concentration (M)

q: # input molecule: CCN(CC)CC1c2ccccc2CN(CCCCC(CN)NC)C1c1ccc(Cl)cc1Cl (stereo not shown) [TRG 2407-35] ; wanted: its pIC50
a: 5.19

q: # input molecule: CNC(CN)CCCCN1Cc2ccccc2C(CO)C1c1ccc(Cl)cc1Cl (stereo not shown) [TRG 2407-40] ; wanted: its pIC50
a: 5.32

q: # input molecule: CNC(CN)CCCCN1Cc2ccccc2C(CNCc2ccccc2OC)C1c1ccc(Cl)cc1Cl (mixture of isomers) [TRG 2407-14] ; wanted: its pIC50
a: 6.43

q: # input molecule: CNC(CN)CCCCN1Cc2ccccc2C(CNCC2CCCCC2)C1c1ccc(Cl)cc1Cl (mixture of isomers) [TRG 2407-31] ; wanted: its pIC50
a: 5.95

q: # input molecule: CNC(CN)CN1Cc2ccccc2C(CNCc2ccccc2O)C1c1cccc(Oc2ccc(Cl)c(Cl)c2)c1 (stereo not shown) [TRG 2406-3] ; wanted: its pIC50
a: 4.91

q: # input molecule: CNC(CN)CCCCN1Cc2ccccc2C(CNc2ccccc2Cl)C1c1ccc(Cl)cc1Cl (stereo not shown) [TRG 2407-3] ; wanted: its pIC50
a: 5.07

q: # input molecule: CNC(CN)CCCCN1Cc2ccccc2C(CNCCc2cccc(Cl)c2)C1c1ccc(Cl)cc1Cl (mixture of isomers) [TRG 2407-24] ; wanted: its pIC50
a: 5.75

q: # input molecule: CCNc1ccc(C2C(CNc3cccc(O)c3)c3ccccc3CN2CCCCC(CN)NC)cc1 (mixture of isomers) [TRG 2407-47] ; wanted: its pIC50
a: 6.08

q: # input molecule: CNC(CN)CCCCN1Cc2ccccc2C(CNCc2ccccc2O)C1c1cccn1C (stereo not shown) [TRG 2406-1] ; wanted: its pIC50
a: 5.42

q: # input molecule: CCCOc1ccc(C2C(CNCc3ccccc3O)c3ccccc3CN2CCCCC(CN)NC)cc1 (stereo not shown) [TRG 2406-16] ; wanted: its pIC50
a: 5.67

q: # input molecule: CNC(CN)CCCCN1Cc2ccccc2C(CNc2ccc(Cl)cc2)C1c1ccc(Cl)cc1Cl (stereo not shown) [TRG 2407-8] ; wanted: its pIC50
a: 4.96

q: # input molecule: CNC(CN)CCCCN1Cc2ccccc2C(CNc2ccc(OC)cc2)C1c1ccc(Cl)cc1Cl (stereo not shown) [TRG 2407-9] ; wanted: its pIC50
a: 5.60

q: # input molecule: CCNc1ccc(C2C(CNCc3ccccc3)c3ccccc3CN2CCCCC(CN)NC)cc1 (stereo not shown) [TRG 2407-50] ; wanted: its pIC50
a: 6.46

q: # input molecule: CCCOc1ccc(C2C(CNCc3ccccc3O)c3ccccc3CN2CCN)cc1 (stereo not shown) [TRG 2406-14] ; wanted: its pIC50
a: 5.08

q: # input molecule: CNC(CN)CCCCN1Cc2ccccc2C(CNC2CCCCCC2)C1c1ccc(Cl)cc1Cl (stereo not shown) [TRG 2407-29] ; wanted: its pIC50
a: 6.19

q: # input molecule: CCn1c2ccccc2c2cc(C3C(CNCc4ccccc4O)c4ccccc4CN3CC(CN)NC)ccc21 (stereo not shown) [TRG 2406-21] ; wanted: its pIC50
a: 5.20
